Entries annotated with measured self-cleavage
B1: HDV Ribozyme (parent)
chain: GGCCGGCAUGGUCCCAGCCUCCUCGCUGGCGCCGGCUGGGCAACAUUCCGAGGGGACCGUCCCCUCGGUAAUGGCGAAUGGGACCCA

variants of: B1; assay: self-cleavage, relative activity (ratio to wild type); higher = more cleavage; co-transcriptional
readout.name: self-cleavage

In [3]: df
Out[3]:
    variant_annotation  result
 0           U23G U72G   0.214
 1           G39A U65C   0.463
 2           U65G G68A   0.772
 3            G6C G39C   0.293
 4            G2C G74C  0.0308
 5           G55U G73C   0.499
 6           C14G G39A   0.277
 7           G50A C61A   0.875
 8            G2U U37C  0.0801
 9           G34U A42C  0.0963
10           G11A G31A   0.114
11           G34U U60C   0.175
12           U46C G67U   0.831
13           C21A A70U       0
14            C4U U47G    0.88
15            C3G G31A  0.0608
16           G25C A78C  0.0773
17            C4G C49U   0.612
18           C24U C64U   0.511
19           A45U U72G   0.755
20           G50U C57G   0.986
21           U72G C75U  0.0415
22           C18A A43C  0.0462
23           G10A G55U   0.698
24           G11A U20C       0
25           U20G G81A   0.108
26            U9G C26G    0.88
27            A8C U69A   0.688
28           G29C A56G  0.0615
29           U46A C84A   0.629
30            C7U G35U  0.0437
31           G10C G81C   0.214
32           G53C G67A   0.723
33            G5A U46A       0
34           C24G A77U   0.111
35           A78U C86G   0.163
36           C15U C48A    1.17
37           G29A C41G  0.0339
38           U23A G74A   0.465
39            C3A A78U  0.0627
40           G38U C75U   0.163
41           G38A C84A   0.185
42           G50U C58G    0.89
43           C64U A83U   0.361
44                 C7A   0.644
45             A8G U9C    1.11
46            G2C A78U   0.132
47           G29A C30A  0.0264
48           G10A C62U   0.898
49            C3U C22A   0.161
50            U9G C18G       0
51           C26G U27G   0.208
52           U20A G55C  0.0536
53           C26G C66U    1.16
54           U27A G82A   0.849
55           C48G G54U   0.726
56           C22A G52U    0.32
57           G17A C57U   0.727
58           C15G C64A   0.538
59           G29U A83G  0.0329
60           U37A C58U   0.405
61           C30U C36A   0.193
62            C4G G29C       0
63            G1A U46A  0.0755
64           G53C A78G   0.554
65           A42G C58G   0.554
66            G2A C22A  0.0205
67            G6A U23G   0.342
68           C13G G35C  0.0536
69           C66A A77U   0.776
70           C48A G81U   0.338
71           G59U C85U   0.935
72            G1U G28A   0.292
73           G28U C85U  0.0639
74           G55A G74C   0.208
75           G10C C26G    1.14
76           G10A C22U   0.157
77            A8C G82A   0.172
78           G31A C86G   0.573
79           C15A G38C  0.0831
80           U12A G31A   0.125
81           G54C U79G   0.475
82           G52A A78C   0.347
83           G31C G40U   0.229
84           G53U G54C   0.845
85           C13U C21A   0.192
86           U23A A45G    1.15
87           C14G C15A   0.312
88                A51C   0.972
89           U46A G76A   0.831
90           C33G G59U   0.111

Cited source for all entries: the RNAGym collection of RNA variant scans (doi:10.7554/elife.80360)
